Measured values drawn from PubChem BioAssay AID1159580 for this set.

Assay: chemical genetic growth profiling, strain panel (AID 1159580);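 also: tested at 20 µM; growth read once vehicle control cultures reached saturation at 30 °C; 1 = growth at the plate median or of vehicle wells; lower values mean less growth of the strain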
Conditions: S. cerevisiae deletion strains, growth OD, locus YCL029C, strain bik1, stronger effect = lower value
In all, about 5,500 compounds went through this assay and about 2,000 (36%) were called active. Another 18% or so got no clear call; they are omitted. The list shows a part of the results.
Hi! Could you tag entries with normalized growth below 1 as fulfilled, and those at or above as not fulfilled? Much appreciated.

These solved cases illustrate the format of a correct answer.
CC[C@@H](C(=O)[C@@H](C)[C@@H](O)[C@H](C)[C@@H]1O[C@@H]([C@@H](CC)C(=O)O)CC[C@@H]1C)[C@H]1OC2(C=C[C@@H](O)[C@]3(CC[C@@](C)([C@H]4CC[C@](O)(CC)[C@H](C)O4)O3)O2)[C@H](C)C[C@@H]1C (some centres undefined); fulfilled
O=C(O)CCCCCCCCCCCCC1C=CCC1 (centres undefined); fulfilled
CC1(C)CC2C1CCC1(C)OC1CCC2(C)O (centres undefined); not fulfilled
c1ccc2[nH]c(-c3cscn3)nc2c1; fulfilled

Continue with the next molecule.
[in] Dear colleague, could you confirm whether normalized growth of O=C(O)c1cc(O)c(O)c(O)c1 falls below 1? Thanks.
[out] not fulfilled

###

Test: chemical genetic growth profiling, strain panel (AID 1159580);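 also: tested at 20 µM; growth read once vehicle control cultures reached saturation at 30 °C; 1 = growth at the plate median or of vehicle wells; lower values mean less growth of the strain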
Conditions: S. cerevisiae deletion strains, growth OD, locus YJL115W, strain asf1, stronger effect = lower value
The whole screen tested about 5,500 compounds, of which about 2,000 (36%) were called active. About 18% were inconclusive and are not listed. Some of the results follow.
Entries and their measured normalized growth follow.
Answer as a number with no unit attached.

Previously resolved entries follow.
COS(C)(=O)=O; 0.982
COC(=O)[C@H]1[C@H]2C[C@@H]3c4[nH]c5cc(OC)ccc5c4CCN3C[C@H]2C[C@@H](OC(=O)c2cc(OC)c(OC)c(OC)c2)[C@@H]1OC; 0.966
c1ccc(-c2ccc(C(c3ccccc3)n3ccnc3)cc2)cc1 (centres undefined); 0.087
O=C1CN(/N=C\c2ccc([N+](=O)[O-])o2)C(=O)N1; 0.951

--- query ---
[in] Report normalized growth for CCn1cc(C(=O)O)c(=O)c2ccc(C)nc21 please.
[out] 0.956

###

Assay: chemical genetic growth profiling, strain panel (AID 1159580);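 also: tested at 20 µM; growth read once vehicle control cultures reached saturation at 30 °C; 1 = growth at the plate median or of vehicle wells; lower values mean less growth of the strain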
Details: S. cerevisiae deletion strains, growth OD, locus YLR113W, strain HOG1, stronger effect = lower value
In all, about 5,500 compounds went through this assay and about 2,000 (36%) were called active. Roughly 18% stayed inconclusive and do not appear here. The list shows a part of the results.
Entries and their measured normalized growth follow.
Answer as a number with no unit attached.

O=C1/C(=C/c2c(F)cccc2Cl)Cc2ccccc21; 0.834
N=C(N)SCc1nc(-c2ccc(Cl)cc2)no1; 0.989
CC1=C(/C=C/C(C)=C/C=C/C(C)=C/CO)C(C)(C)CCC1; 1
O=C(CO/N=C\c1ccc(Cl)cc1Cl)NNC(=S)Nc1cc(Cl)ccc1Cl; 1.01
Cc1cc(C(=O)O/N=C(/N)c2ccc(C(C)(C)C)cc2)no1; 0.789

[in] Report normalized growth for CC[C@@H]1[C@@H](O)N2C3C[C@H]1C1C(O)[C@]4(C[C@@H]12)c1ccccc1N(C)[C@@H]34 (some centres undefined) please.
[out] 0.996

[in] // repeat for CC1(C)C/C(=N/Nc2ccc(C(F)(F)F)cc2)c2cc(C(C)(C)C)c(O)c(O)c2O1 and report
[out] 0.199

[in] // repeat for CCCCCCCC1CCC/C1=N/OC(=O)c1cccs1 (centres undefined) and report
[out] 0.739

[in] // repeat for C=CC1=C(C)/C(=C/c2[nH]c(Cc3[nH]c(/C=C4\NC(=O)C(C)=C4C=C)c(C)c3CCC(=O)O)c(CCC(=O)O)c2C)NC1=O and report
[out] 0.964

[in] // repeat for NCCCCN=C(N)N and report
[out] 1
